Where do the numbers come from? From PubChem BioAssay AID588354.

# targetSystem: Nuclear receptor coactivator 1 (Homo sapiens) (UniProt Q15788)
# Sequence (Q15788 whole entry, looked up): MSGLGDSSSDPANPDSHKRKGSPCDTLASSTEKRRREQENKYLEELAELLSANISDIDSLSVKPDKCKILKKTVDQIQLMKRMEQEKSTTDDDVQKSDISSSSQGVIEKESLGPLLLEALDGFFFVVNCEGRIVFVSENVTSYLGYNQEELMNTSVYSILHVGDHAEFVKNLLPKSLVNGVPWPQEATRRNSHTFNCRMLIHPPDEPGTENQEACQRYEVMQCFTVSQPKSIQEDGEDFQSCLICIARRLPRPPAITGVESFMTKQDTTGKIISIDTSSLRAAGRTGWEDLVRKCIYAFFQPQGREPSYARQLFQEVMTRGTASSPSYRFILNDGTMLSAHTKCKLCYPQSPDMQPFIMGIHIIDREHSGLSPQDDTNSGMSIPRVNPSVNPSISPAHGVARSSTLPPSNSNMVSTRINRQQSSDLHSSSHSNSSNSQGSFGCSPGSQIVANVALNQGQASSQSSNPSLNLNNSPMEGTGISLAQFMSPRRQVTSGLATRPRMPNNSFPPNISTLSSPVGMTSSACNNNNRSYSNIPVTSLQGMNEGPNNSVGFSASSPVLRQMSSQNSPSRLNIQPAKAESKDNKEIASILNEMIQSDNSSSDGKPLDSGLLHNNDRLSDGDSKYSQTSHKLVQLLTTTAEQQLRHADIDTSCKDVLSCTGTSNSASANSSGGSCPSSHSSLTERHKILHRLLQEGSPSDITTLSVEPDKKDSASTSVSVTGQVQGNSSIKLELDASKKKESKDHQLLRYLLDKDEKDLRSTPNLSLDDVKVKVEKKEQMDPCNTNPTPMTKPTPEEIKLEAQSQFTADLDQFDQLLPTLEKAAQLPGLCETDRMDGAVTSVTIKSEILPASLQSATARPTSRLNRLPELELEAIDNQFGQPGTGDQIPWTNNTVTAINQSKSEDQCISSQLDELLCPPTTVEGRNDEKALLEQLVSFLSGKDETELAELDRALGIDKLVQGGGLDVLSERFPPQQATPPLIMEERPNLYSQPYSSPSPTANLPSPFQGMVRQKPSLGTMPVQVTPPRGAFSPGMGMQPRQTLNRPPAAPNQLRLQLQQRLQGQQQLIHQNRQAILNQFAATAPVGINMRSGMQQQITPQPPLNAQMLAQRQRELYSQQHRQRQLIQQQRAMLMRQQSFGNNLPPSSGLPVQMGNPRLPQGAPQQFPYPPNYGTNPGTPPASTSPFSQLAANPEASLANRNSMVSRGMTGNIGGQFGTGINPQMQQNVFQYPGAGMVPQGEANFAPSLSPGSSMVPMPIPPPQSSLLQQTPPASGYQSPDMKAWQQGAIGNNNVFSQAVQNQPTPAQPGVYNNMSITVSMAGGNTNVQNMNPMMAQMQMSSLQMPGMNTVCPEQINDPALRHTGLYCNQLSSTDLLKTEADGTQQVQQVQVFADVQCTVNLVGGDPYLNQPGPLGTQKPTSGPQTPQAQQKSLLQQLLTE
# assayNotes: SRC1 coactivator transcriptional activity inhibitors, primary screen, cell-based, luminescence (AID 588354)
# measurementConditions: HEK293 GAL4-SRC1 luciferase reporter, at 3.6 µM
In all, about 360,000 compounds went through this assay and about 430 (0.12%) were called active.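 The calls were made as follows: active = inhibition above the campaign mean plus 3 SD, with each screening campaign given its own cutoff (cut at about 60% in these data); inactive = the rest.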 Shown is part of a subset that was picked to be rich in actives.
Please state which outcome applies, choosing from true (active), false (inactive)

C[C@@H](C(=O)N1CCNCC1)n1cc(CCC(=O)O)nn1 : false
FC(F)(F)c1nc(-c2ccccc2)ncc1-c1nnnn1-c1ccccc1 : false
CC(C)CCNC(=O)CCNS(=O)(=O)c1ccc(Cl)cc1 : false
CCc1ccc(C(=O)N2CCN(S(=O)(=O)c3sc(C(=O)O)c(C)c3C(=O)O)CC2)cc1 : false
O=C(Nc1cc(-c2nc3ncccc3o2)ccc1Cl)c1ccco1 : false
Cc1cc(C)cc(NC(=O)CSCc2cnn(-c3ccccc3)c2-n2cccc2)c1 : false
Clc1ccc2nc(CSc3ccccc3)cn2c1 : false
O=C(CN1C(=O)c2ccccc2S1(=O)=O)N1CCc2ccccc21 : true
O=C(O)COCC(=O)NCc1csc2ccc(Cl)cc12 : false
CCSc1sc(CC)cc1C=O : false

Each compound tested received a call. Report the one for COCCn1nnnc1CN1CCC(NC(=O)Nc2cccc(OC)c2)CC1 .
false

What about Cc1cc(NCc2cccnc2)no1 ?
false
